B1: TPR 5TU (parent)
chain: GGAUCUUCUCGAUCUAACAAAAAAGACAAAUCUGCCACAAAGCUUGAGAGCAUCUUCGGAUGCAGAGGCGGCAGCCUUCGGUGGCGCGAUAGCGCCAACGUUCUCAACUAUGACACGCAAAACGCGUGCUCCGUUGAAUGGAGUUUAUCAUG

# Variants of: B1
# measurementNotes: polymerase ribozyme fitness, log enrichment relative to wild type (log ratio); higher = more active; in vitro selection for triplet polymerase activity
Variants at the floor of the assay were thinned out.
We begin with a simple list: items and their reported polymerase ribozyme fitness (log ratio).
quantityMeasured: polymerase ribozyme fitness (log ratio)

- variantKey: "C14G G94A A106C G136A"
  valueRelationSign: "="
  assayResult: -3.64
- variantKey: "A30G G42A C96G G100A U139C U148C"
  valueRelationSign: "≤"
  assayResult: -4.2
- variantKey: "A22G C38U C95U A107C G128A"
  valueRelationSign: "≤"
  assayResult: -4.2
- variantKey: "A47C C54A C76U C85G A106U G143C"
  valueRelationSign: "≤"
  assayResult: -4.2
- variantKey: "U4G A37U G81A C99A A106C U127G"
  valueRelationSign: "≤"
  assayResult: -4.2
- variantKey: "A52G C85U"
  valueRelationSign: "="
  assayResult: -0.204
- variantKey: "A24U C96U C129G"
  valueRelationSign: "="
  assayResult: -3.47
- variantKey: "C75G C95U"
  valueRelationSign: "="
  assayResult: -2.19
- variantKey: "G25A A28U A41U A66U G83U U111G C118U"
  valueRelationSign: "≤"
  assayResult: -4.2
- variantKey: "A22C C35G U44A A60G C76A C95U G128A A150C U151G"
  valueRelationSign: "≤"
  assayResult: -4.2
- variantKey: "C96A A150C"
  valueRelationSign: "="
  assayResult: -3.12
- variantKey: "G80U"
  valueRelationSign: "="
  assayResult: -0.409
- variantKey: "U13G A39C G62A A107U U139A A142U"
  valueRelationSign: "≤"
  assayResult: -4.2
- variantKey: "C14G U61A"
  valueRelationSign: "="
  assayResult: -3.55
- variantKey: "A19U G58C C87U C95U C116G"
  valueRelationSign: "="
  assayResult: -1.52
- variantKey: "C32G C93G"
  valueRelationSign: "≤"
  assayResult: -4.2
- variantKey: "A37C A52G U82C C85G C95U C105U A142C A150G"
  valueRelationSign: "≤"
  assayResult: -4.2
- variantKey: "A60C C85U"
  valueRelationSign: "="
  assayResult: -1.01
- variantKey: "A21U C75A A122U"
  valueRelationSign: "="
  assayResult: -3.97
- variantKey: "C32G A39C A41C A52U G94C C116G"
  valueRelationSign: "≤"
  assayResult: -4.2
- variantKey: "C76U C118A"
  valueRelationSign: "="
  assayResult: -2.21
- variantKey: "C72A A73U C85G A138C U148C"
  valueRelationSign: "≤"
  assayResult: -4.2
- variantKey: "A17C U45A C54G G74A A91C U139G"
  valueRelationSign: "≤"
  assayResult: -4.2
- variantKey: "G71C G80C C95G U104G C116U"
  valueRelationSign: "≤"
  assayResult: -4.2
- variantKey: "G11U C38A A40C U53A G58A"
  valueRelationSign: "="
  assayResult: -3.76
- variantKey: "A22C G42C C69G A91U"
  valueRelationSign: "≤"
  assayResult: -4.2
- variantKey: "U56G G84C C116U"
  valueRelationSign: "="
  assayResult: -4.17
